The reader will find pIC50 measurements below, all made with ALK (baculovirus expressed human ALK kinase domain F1098-K1410) (Homo sapiens).
Sequence (Q9UM73 1098-1410): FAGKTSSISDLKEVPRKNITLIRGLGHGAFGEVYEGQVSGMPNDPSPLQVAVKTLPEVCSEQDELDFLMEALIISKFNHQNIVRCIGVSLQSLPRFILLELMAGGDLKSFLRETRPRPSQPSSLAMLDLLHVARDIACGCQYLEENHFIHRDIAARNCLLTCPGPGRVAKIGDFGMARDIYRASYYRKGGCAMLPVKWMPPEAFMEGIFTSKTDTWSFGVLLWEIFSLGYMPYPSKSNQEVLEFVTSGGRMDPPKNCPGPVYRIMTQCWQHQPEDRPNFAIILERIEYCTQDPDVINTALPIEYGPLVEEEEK
pIC50: −log10 of the molar value. Counter-ions that a name gives are not always drawn.

- COMPOUND: "COc1c(OCCN2CCCCC2)cc(F)c2c(-c3ccc(O)c(Cl)c3)nc3[nH]nc(C)c3c12"
  pIC50: "≥ 7.00"
- COMPOUND: "Cc1n[nH]c2nc(-c3ccc(O)c(Br)c3)c3ccccc3c12"
  pIC50: "≥ 7.00"
- COMPOUND: "Cc1n[nH]c2nc(-c3cc(Cl)c(O)cc3F)c3ccc4c(c3c12)OCCO4"
  pIC50: "≥ 7.00"
- COMPOUND: "COCCOc1cc2c(cc1OC)c(-c1ccc(O)cc1F)nc1[nH]nc(C)c12"
  pIC50: "≥ 7.00"

## Task Send back ALK (baculovirus expressed human ALK kinase domain F1098-K1410) (Homo sapiens) pIC50 of Cc1n[nH]c2nc(-c3ccc(N)cc3)c3c(F)cc(O)c(F)c3c12 only.
## Result 5.70 to 6.00

## Task # return pIC50 for COc1cc2c(cc1OCCN1CCOCC1)c(-c1ccc(O)cc1)nc1[nH]nc(C)c12 , test system: ALK (baculovirus expressed human ALK kinase domain F1098-K1410) (Homo sapiens)
## Result 6.00 to 7.00

## Task Give pIC50 for this entry on ALK (baculovirus expressed human ALK kinase domain F1098-K1410) (Homo sapiens): CCOCCOc1cc2c(cc1OC)c(-c1ccc(O)c(Cl)c1)nc1[nH]nc(C)c12
## Result ≥ 7.00

## Task Report value only: pIC50, ALK (baculovirus expressed human ALK kinase domain F1098-K1410) (Homo sapiens), CCCCN(CC)CCOc1cc(F)c2c(-c3ccc(O)c(Cl)c3)nc3[nH]nc(C)c3c2c1OC
## Result ≥ 7.00

## Task Write down the reported pIC50 (system: ALK (baculovirus expressed human ALK kinase domain F1098-K1410) (Homo sapiens)) of Cc1n[nH]c2nc(-c3ccc(O)c(Cl)c3)c3c(F)cc(OC(F)F)c(F)c3c12
## Result ≥ 7.00

## Task Name the recorded pIC50 of COc1c(OCCN2C3CCC2CC(N)C3)cc(F)c2c(-c3ccc(O)c(Cl)c3)nc3[nH]nc(C)c3c12 (centres unmarked) , assay system ALK (baculovirus expressed human ALK kinase domain F1098-K1410) (Homo sapiens).
## Result ≥ 7.00

## Task Name the recorded pIC50 of CCN1CCN(CCOc2cc(F)c3c(-c4ccc(O)c(Cl)c4)nc4[nH]nc(C)c4c3c2F)CC1 , assay system ALK (baculovirus expressed human ALK kinase domain F1098-K1410) (Homo sapiens).
## Result ≥ 7.00

## Task Consider the compound COc1cc2c(-c3ccc(O)c(Br)c3)nc3[nH]nc(C)c3c2cc1OC tested on ALK (baculovirus expressed human ALK kinase domain F1098-K1410) (Homo sapiens); state its pIC50.
## Result ≥ 7.00

## Task Jot down pIC50 (ALK (baculovirus expressed human ALK kinase domain F1098-K1410) (Homo sapiens)) of COCCOc1cc(F)c2c(-c3ccc(O)c(Cl)c3)nc3[nH]nc(C)c3c2c1OCCOC .
## Result ≥ 7.00

## Task Tell me its pIC50 on ALK (baculovirus expressed human ALK kinase domain F1098-K1410) (Homo sapiens): COc1c(OCCC2CCN(C)CC2)cc(F)c2c(-c3ccc(O)c(Cl)c3)nc3[nH]nc(C)c3c12
## Result ≥ 7.00

## Task State, for ALK (baculovirus expressed human ALK kinase domain F1098-K1410) (Homo sapiens), measured pIC50 of the compound listed here: COCCOc1ccc2c(-c3ccc(O)c(Br)c3)nc3[nH]nc(C)c3c2c1OCCOC
## Result ≥ 7.00

## Task Give ALK (baculovirus expressed human ALK kinase domain F1098-K1410) (Homo sapiens) pIC50 for the following compound: COc1cc(OC)c2c(-c3ccc(O)cc3)nc3[nH]ncc3c2c1
## Result 6.00 to 7.00

## Task State pIC50 (ALK (baculovirus expressed human ALK kinase domain F1098-K1410) (Homo sapiens)) of COc1cc2c(-c3ccc(O)cc3)nc3[nH]nc(Cc4cccc(C)c4)c3c2cc1OC [Example 14, hydrochloride] .
## Result 6.00 to 7.00
